Each recorded value in this set is attributed to ChEMBL document CHEMBL5244263.

- assay-protocol: Selectivity for inhibition of human FXIa over bovine trypsin
measure: Selectivity ratio

substance-smiles | result
O=c1c2ccccc2nc(-c2ccc(OS(=O)(=O)O)cc2)n1CCCCCCCCn1cc(Cn2c(-c3ccc(OS(=O)(=O)O)cc3)nc3ccccc3c2=O)nn1 | > 63
O=c1c2ccccc2nc(-c2ccc(OS(=O)(=O)O)cc2)n1CCCCCCCCCCCn1cc(Cn2c(-c3ccc(OS(=O)(=O)O)cc3)nc3ccccc3c2=O)nn1 | > 63
O=c1c2ccccc2nc(-c2cccc(OS(=O)(=O)O)c2)n1Cc1cccc(Cn2c(-c3cccc(OS(=O)(=O)O)c3)nc3ccccc3c2=O)c1 | > 63
O=c1c2ccccc2nc(-c2ccc(OS(=O)(=O)O)cc2)n1CCCCCn1c(-c2ccc(OS(=O)(=O)O)cc2)nc2ccccc2c1=O | > 63
O=c1c2ccccc2nc(-c2ccc(OS(=O)(=O)O)cc2)n1CCCCCCCCCn1cc(Cn2c(-c3ccc(OS(=O)(=O)O)cc3)nc3ccccc3c2=O)nn1 | > 63
O=c1c2ccccc2nc(-c2ccc(OS(=O)(=O)O)cc2)n1Cc1cccc(Cn2c(-c3ccc(OS(=O)(=O)O)cc3)nc3ccccc3c2=O)c1 | > 63
O=c1c2ccccc2nc(-c2cccc(OS(=O)(=O)O)c2)n1CCOCCn1c(-c2cccc(OS(=O)(=O)O)c2)nc2ccccc2c1=O | > 63
COc1ccc2nc(-c3ccc(OS(=O)(=O)O)cc3)n(CCCCCCn3c(-c4ccc(OS(=O)(=O)O)cc4)nc4ccc(OC)cc4c3=O)c(=O)c2c1 | > 63
O=c1c2ccccc2nc(-c2ccc(OS(=O)(=O)O)cc2)n1CCCCCCCn1c(-c2ccc(OS(=O)(=O)O)cc2)nc2ccccc2c1=O | > 63

###

- Species: Homo sapiens
- assay-protocol: Selectivity for inhibition of human FXIa over FVIIa (unknown origin)

substance-smiles | Selectivity ratio
O=c1c2ccccc2nc(-c2ccc(OS(=O)(=O)O)cc2)n1CCCCCCCCn1cc(Cn2c(-c3ccc(OS(=O)(=O)O)cc3)nc3ccccc3c2=O)nn1 | > 63
O=c1c2ccccc2nc(-c2cccc(OS(=O)(=O)O)c2)n1CCOCCn1c(-c2cccc(OS(=O)(=O)O)c2)nc2ccccc2c1=O | > 63
O=c1c2ccccc2nc(-c2cccc(OS(=O)(=O)O)c2)n1CCCCCn1c(-c2cccc(OS(=O)(=O)O)c2)nc2ccccc2c1=O | > 63
O=c1c2ccccc2nc(-c2ccc(OS(=O)(=O)O)cc2)n1Cc1ccccc1Cn1c(-c2ccc(OS(=O)(=O)O)cc2)nc2ccccc2c1=O | > 63
O=c1c2ccccc2nc(-c2cccc(OS(=O)(=O)O)c2)n1CCCCCCn1c(-c2cccc(OS(=O)(=O)O)c2)nc2ccccc2c1=O | > 63
O=c1c2ccccc2nc(-c2ccc(OS(=O)(=O)O)cc2)n1CCCCCCCCCCn1c(-c2ccc(OS(=O)(=O)O)cc2)nc2ccccc2c1=O | > 63
O=c1c2ccccc2nc(-c2ccc(OS(=O)(=O)O)cc2)n1CCCCCCCn1cc(Cn2c(-c3ccc(OS(=O)(=O)O)cc3)nc3ccccc3c2=O)nn1 | > 63

###

- Species on record: Homo sapiens
- assay-protocol: Selectivity for inhibition of human FXIa over human FXa

substance-smiles | Selectivity ratio
O=c1c2ccccc2nc(-c2cccc(OS(=O)(=O)O)c2)n1CCCCCn1c(-c2cccc(OS(=O)(=O)O)c2)nc2ccccc2c1=O | > 63
O=c1c2ccccc2nc(-c2cccc(OS(=O)(=O)O)c2)n1Cc1cccc(Cn2c(-c3cccc(OS(=O)(=O)O)c3)nc3ccccc3c2=O)c1 | > 63
O=c1c2ccccc2nc(-c2cccc(OS(=O)(=O)O)c2)n1C/C=C/Cn1c(-c2cccc(OS(=O)(=O)O)c2)nc2ccccc2c1=O | > 63
O=c1c2ccccc2nc(-c2cccc(OS(=O)(=O)O)c2)n1CCCCCCn1c(-c2cccc(OS(=O)(=O)O)c2)nc2ccccc2c1=O | > 63
O=c1c2ccccc2nc(-c2ccc(OS(=O)(=O)O)cc2)n1CCCCCCCCCn1cc(Cn2c(-c3ccc(OS(=O)(=O)O)cc3)nc3ccccc3c2=O)nn1 | > 63
O=c1c2ccccc2nc(-c2ccc(OS(=O)(=O)O)cc2)n1CCCCCn1c(-c2ccc(OS(=O)(=O)O)cc2)nc2ccccc2c1=O | > 63
